These entries and their values trace back to paper PMC10397247.

Molecular target: T1, 4H3974-bA
T1 chain: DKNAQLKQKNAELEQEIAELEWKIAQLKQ
Experiment: two-hybrid library CCNG1;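 note: natural log of median RNA to DNA barcode read ratio; higher means stronger binding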
Strictly below 0.2 in interaction score: label 1. Otherwise: label 0.

DENAQLEQKIAELEQKNAELKWEIAQLKQ [4H1338-bA]
label 0

Decide: interaction score of DENAQLKQEIAELKQENAELKWKIAQLEQ [4H1629-bA] strictly below 0.2?
label 1

Another binder to check: DKNAQLKQEIAELEQENAELKWKIAQLEQ [4H3613-bA]
label 1

Another binder to check: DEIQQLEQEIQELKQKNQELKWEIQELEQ [4H121-bN]
label 0

Another binder to check: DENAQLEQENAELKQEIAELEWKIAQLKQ [4H1222-bA]
label 0
